target: Gal(a1-4)Gal(b1-3)GlcNAc(b1-2)Man(a1-3)[Gal(a1-4)Gal(b1-3)GlcNAc(b1-2)Man(a1-6)]Man(b1-4)GlcNAc(b1-4)GlcNAc; assay: glycan array binding signal (z-score within array); higher = stronger binding; conditions: glycan notation: IUPAC condensed, linker removed
The entries come from a sample that favours the strongest signals as a whole.
parameter: glycan array binding signal (z-score)
Could you respond with only the numeric value?

{"binder": "SP15308F-bth-333-19-333 (Bacteroides thetaiotaomicron) (protein) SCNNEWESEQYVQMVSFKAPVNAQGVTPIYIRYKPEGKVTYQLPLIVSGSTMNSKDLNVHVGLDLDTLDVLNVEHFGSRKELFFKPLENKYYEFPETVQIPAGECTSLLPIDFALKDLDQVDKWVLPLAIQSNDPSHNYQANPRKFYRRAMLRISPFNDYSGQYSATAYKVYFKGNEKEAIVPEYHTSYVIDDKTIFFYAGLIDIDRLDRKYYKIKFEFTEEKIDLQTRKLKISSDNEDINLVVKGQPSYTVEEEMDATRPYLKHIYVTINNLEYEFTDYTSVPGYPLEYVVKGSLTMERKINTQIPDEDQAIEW", "glycan array binding signal (z-score)": -1.15}
{"binder": "AMA (Arum maculatun) (protein) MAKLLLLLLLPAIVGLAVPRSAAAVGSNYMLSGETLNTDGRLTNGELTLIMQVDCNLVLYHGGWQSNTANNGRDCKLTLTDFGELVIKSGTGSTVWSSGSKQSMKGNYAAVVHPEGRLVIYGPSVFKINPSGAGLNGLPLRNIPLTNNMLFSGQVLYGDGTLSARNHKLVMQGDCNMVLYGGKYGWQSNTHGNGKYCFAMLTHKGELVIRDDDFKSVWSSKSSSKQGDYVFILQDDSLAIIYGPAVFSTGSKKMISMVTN", "glycan array binding signal (z-score)": 5.86}

Please report the measured glycan array binding signal (z-score) for Drgal1 (Danio rerio) (protein) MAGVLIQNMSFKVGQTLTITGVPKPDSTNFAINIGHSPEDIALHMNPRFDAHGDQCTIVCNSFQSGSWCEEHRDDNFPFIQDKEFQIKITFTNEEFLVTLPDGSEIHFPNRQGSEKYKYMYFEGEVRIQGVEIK -0.114

Annotate the binder GNL (Galanthus nivalis) (protein) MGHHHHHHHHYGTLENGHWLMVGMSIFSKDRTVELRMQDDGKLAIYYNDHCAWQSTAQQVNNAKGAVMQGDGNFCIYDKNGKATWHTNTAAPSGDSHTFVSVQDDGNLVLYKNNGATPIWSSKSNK with its measured glycan array binding signal (z-score). 4.92

Provide glycan array binding signal (z-score) value for the following binder: SCA (Schizophyllum commune) (protein) MGIDQGVYLITNAGSGTAATLKDGYVKGWERIKGKEQLNQLWFVKSVKTSASDPGYAAFNLATNKVLDLEKGLADRGTPILGWDYHEGDNQHWVIKKQADGKYYKIQSVKTQTFVDLNNGGKDNGTKIQGWVGSWDETNSHQRWVFNQFSATGSRIKSILDTHPKIHGKVIVEWPDRIYFTPDQYIFEAIWAKTGLADIKPRDPLFQSEAYEKVFKGWVVSRAQEIIKVDGFDILVGSLSLVEKSTQKIKVLDVSVRTSDDKSPDLSQIVFFDPESGRTLVDIPEGYEVNSVII 3.68

Name the recorded glycan array binding signal (z-score) of the item CLEC9a (Mus musculus), Q8BRU4 (protein) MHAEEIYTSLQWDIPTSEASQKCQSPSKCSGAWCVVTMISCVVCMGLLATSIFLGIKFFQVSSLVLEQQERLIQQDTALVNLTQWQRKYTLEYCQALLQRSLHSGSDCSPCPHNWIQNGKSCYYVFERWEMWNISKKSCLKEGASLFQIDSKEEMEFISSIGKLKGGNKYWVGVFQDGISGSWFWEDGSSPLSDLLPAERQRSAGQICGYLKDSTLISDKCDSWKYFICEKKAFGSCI in your answer. 3.35
